# test.system: Prostaglandin G/H synthase 1 (Homo sapiens, UniProt P23219)
# Sequence (P23219 whole entry): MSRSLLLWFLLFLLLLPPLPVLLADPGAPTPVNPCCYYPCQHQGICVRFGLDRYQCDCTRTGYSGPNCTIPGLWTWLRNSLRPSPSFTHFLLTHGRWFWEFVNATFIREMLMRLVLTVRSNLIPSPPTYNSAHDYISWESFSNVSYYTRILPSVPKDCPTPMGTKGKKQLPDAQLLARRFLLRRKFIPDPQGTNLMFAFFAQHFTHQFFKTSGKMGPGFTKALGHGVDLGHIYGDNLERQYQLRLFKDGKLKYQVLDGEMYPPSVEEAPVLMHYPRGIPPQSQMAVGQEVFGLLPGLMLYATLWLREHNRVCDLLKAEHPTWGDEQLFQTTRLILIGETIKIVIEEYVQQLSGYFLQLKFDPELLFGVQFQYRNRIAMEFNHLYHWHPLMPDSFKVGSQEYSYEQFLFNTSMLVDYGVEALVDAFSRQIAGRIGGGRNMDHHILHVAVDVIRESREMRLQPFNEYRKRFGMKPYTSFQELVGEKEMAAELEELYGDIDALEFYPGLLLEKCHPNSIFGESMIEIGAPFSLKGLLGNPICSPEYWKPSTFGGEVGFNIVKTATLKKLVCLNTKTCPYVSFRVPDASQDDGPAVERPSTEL
# assay.comment: Biochemical index for Prostaglandin G/H synthase 1 measured as, thromboxane 2 (TXB2) levels following blood coagulation
pIC50: −log10 of the molar value.
quantity: pIC50

Take a look at these entries with their results.
COc1ccc(C2=C(c3ccc(S(C)(=O)=O)cc3)CN(c3ccc(F)cc3)C2=O)cc1: 5.60
COc1ccccc1N1CC(c2ccc(S(C)(=O)=O)cc2)=C(c2ccc(F)cc2)C1=O: 5.40
Cc1ccc(N2CC(c3ccc(S(C)(=O)=O)cc3)=C(c3ccc(F)cc3)C2=O)cc1: 5.43
CS(=O)(=O)c1ccc(C2=C(c3ccccc3)C(=O)N(c3ccc(C(F)(F)F)cc3)C2)cc1: 5.29
COc1ccc(N2CC(c3ccc(S(C)(=O)=O)cc3)=C(c3ccc(F)cc3)C2=O)cc1: 5.28

1: COc1ccc(C2=C(c3ccc(S(C)(=O)=O)cc3)CN(c3cccc(F)c3)C2=O)cc1
2: Cc1ccc(N2CC(c3ccc(S(C)(=O)=O)cc3)=C(c3ccccc3)C2=O)cc1
Which has the higher pIC50, 1 or 2 ? Label of pick, please.
1

I: CS(=O)(=O)c1ccc(C2=C(c3ccc(F)cc3)C(=O)N(c3ccccc3F)C2)cc1
II: CS(=O)(=O)c1ccc(C2=C(c3ccc(F)c(F)c3)C(=O)N(c3ccccc3)C2)cc1
Which has the higher pIC50, I or II ? Label of pick, please.
I

P: CS(=O)(=O)c1ccc(C2=C(c3ccc(F)cc3)C(=O)N(c3ccccc3)C2)cc1
Q: CS(=O)(=O)c1ccc(C2=C(c3ccccc3)C(=O)N(c3ccccc3F)C2)cc1
R: CS(=O)(=O)c1ccc(C2=C(c3ccccc3)C(=O)N(c3ccc(F)cc3)C2)cc1
Arrange these compounds by their pIC50, starting with the largest number. In plain terms: list the labels in the order you were asked to.
P, R, Q
(P: 5.57, R: 5.23, Q: 4.97)

1: CS(=O)(=O)c1ccc(C2=C(c3ccccc3)C(=O)N(c3cccc(Cl)c3)C2)cc1
2: COc1ccc(C2=C(c3ccc(S(C)(=O)=O)cc3)CN(c3ccccc3Cl)C2=O)cc1
Which has the higher pIC50, 1 or 2 ? Label of pick, please.
2

A: COc1ccc(C2=C(c3ccc(S(C)(=O)=O)cc3)CN(c3ccccc3)C2=O)cc1
B: CS(=O)(=O)c1ccc(C2=C(c3ccc(F)cc3)C(=O)N(c3ccc(C(F)(F)F)cc3)C2)cc1
Hey, which is lower on measured pIC50, A or B ? Label of pick, please.
B
(B: 5.14, A: 5.57)
